Quick list: self-cleavage per entry.
B1: LINE1-mini (parent)
chain: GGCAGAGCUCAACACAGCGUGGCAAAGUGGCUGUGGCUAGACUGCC

# Variants of: B1
# assay.remarks: self-cleavage, relative activity (ratio to wild type); higher = more cleavage; in vitro, sequencing; the parent is a self-cleaving ribozyme
Number only, no unit.

// fetch self-cleavage given entry `GGCAGAGCUCAACGCAGCGUGGCAAAGAGGCUGUGGCUAGACUGCC` 0.39

// fetch self-cleavage given entry `GGCAGAGCUCAACACAGCGUGGGAAAGUGGCUGUGGCUACACUGCC` 0.13

// fetch self-cleavage given entry `GGCACAACUCAACACAGCGUGGCAAAGUGGCUGUGGCUAGACUGCC` 0.22

// fetch self-cleavage given entry `GGCAGAGCUUAACACAGCGUGGCAAAGUGGCUGUGGCUAGACUGCA` 0.33

// fetch self-cleavage given entry `GGCAGAUCUCCACACAGCGUGGCAAAGUGGCUGUGGCUAGACUGCC` 0.02

// fetch self-cleavage given entry `GGCAGAGCUCAACACAGCGUGGCAAAGCGGCUGUGGCUAGACUCCC` 0.27

// fetch self-cleavage given entry `GGCAUAGCUCCACACAGCGUGGCAAAGUGGCUGUGGCUAGACUGCC` 0.03

// fetch self-cleavage given entry `GGCAGAGCUCAACACAGCGUGGCAAAGUUUCUGUGGCUAGACUGCC` 1.72
